Assay: Antiproliferative activity against human SKOV3 cells after 48 hrs by MTT assay
Conditions: SK-OV-3, 48 h
experimental-endpoint: pIC50
As a rule, pIC50 stands for the negative log10 of the concentration, concentration in M.

Returns the measured pIC50 for the input compound. Input: Cc1cc(=O)oc2cc(OCCOc3no[n+]([O-])c3S(=O)(=O)c3ccccc3)ccc12
7.08

* * *

Tested on: A2780
Experiment: Antiproliferative activity against human A2780 cells after 48 hrs by MTT assay
Settings: A2780, 48 h
pIC50: −log10 of the molar value.
Answer f if pIC50 is under 6, and t if it is 6 or more.

Cc1cc(=O)oc2cc(Oc3no[n+]([O-])c3S(=O)(=O)c3ccccc3)ccc12 :: f

// inclusive: pIC50 at least 6? input: Cc1cc(=O)oc2cc(O)ccc12 [HYMECROMONE]
f

Is reported pIC50 greater than or equal to 6 here: CCc1cc(=O)c2ccc(Oc3no[n+]([O-])c3S(=O)(=O)c3ccccc3)cc2o1
t

Does pIC50 meet or surpass 6 for O=c1ccc2ccc(OCCOc3no[n+]([O-])c3S(=O)(=O)c3ccccc3)cc2o1 ?
t

Confirm if pIC50 reported for the compound Cc1cc(=O)oc2cc(OCCCOc3no[n+]([O-])c3S(=O)(=O)c3ccccc3)ccc12 is 6 or above.
t

Check this compound for pIC50 at or above 6: Cc1cc(=O)oc2cc(SCCOc3no[n+]([O-])c3S(=O)(=O)c3ccccc3)ccc12
t

Please check the record COCCOc1no[n+]([O-])c1S(=O)(=O)c1ccccc1 and state if its pIC50 is at or above 6.
f

Can CCOC(=O)N1CCN(/[N+]([O-])=N/Oc2ccc([N+](=O)[O-])cc2[N+](=O)[O-])CC1 be said to have pIC50 at or above 6?
t

Hi team, for Cc1cc(=O)oc2cc(OCC(=O)OCCOc3no[n+]([O-])c3S(=O)(=O)c3ccccc3)ccc12 , is the recorded pIC50 at or above 6?
f
